Tested on: NIH3T3
measurement.description: Cytotoxicity against mouse NIH/3T3 cells assessed as reduction in cell viability after 48 hrs by CCK8 assay
Type: cell-based
applied.conditions: NIH3T3, 48 h

substance.smiles: Nc1ccc(F)cc1NC(=O)c1ccc(CNC(=O)/C=C/c2cccnc2)cc1
IC50, µM: 2.37

substance.smiles: COc1ccc2c(=O)n(-c3ccccc3Cl)c(SCc3ccc(C(=O)Nc4ccccc4N)cc3)nc2c1
IC50, µM: 3.39

substance.smiles: Nc1ccccc1NC(=O)c1ccc(CNC(=O)OCc2cccnc2)cc1
IC50, µM: 2.42

substance.smiles: Cn1c(SCc2ccc(C(=O)Nc3ccccc3N)cc2)nc2cc(Br)ccc2c1=O
IC50, µM: 4.02

substance.smiles: COc1ccc2c(=O)n(C)c(SCc3ccc(C(=O)Nc4ccccc4N)cc3)nc2c1
IC50, µM: 2.53

substance.smiles: CC(=O)Nc1ccc(C(=O)Nc2ccccc2N)cc1
IC50, µM: 9.05

substance.smiles: CCn1c(SCc2ccc(/C=C/C(=O)Nc3ccccc3N)cc2)nc2cc(OC)ccc2c1=O
IC50, µM: 4.8
